B1: Receptor-interacting serine/threonine-protein kinase 2, residues 438 to 518; numbered along this chain, O43353 (parent)
chain: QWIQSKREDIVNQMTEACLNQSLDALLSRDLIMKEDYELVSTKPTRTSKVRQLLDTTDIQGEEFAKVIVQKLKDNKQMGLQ

Variants of: B1
METHOD_NOTES: abundance fitness (aPCA) (normalised: wild type 0, dead -1); higher = more abundant; growth selection in yeast, the domain comes from the species named
CONDITION_PARAMETERS: Homo sapiens
MEASUREMENT_LABEL: abundance fitness
Lab note: jot the number down without any unit.

ORDERED_RESIDUES	abundance fitness
QWIQSKREDIVNQMTEACLNQSLDALLSRDLIMKEDYELVSTKPTRTSKVRQDLDTTDIQGEEFAKVIVQKLKDNKQMGLQ [L53D]	-0.689

Here is another variant to look at.
Please report the recorded abundance fitness for QWIQSKREDIVNQMTEACLNQSLDALLSRDLIMKEDYELVSTKPTRTSKVRQLLDTTDIQGEEFAKVIVQKLKDNVQMGLQ [K76V] .
-0.301
